Assay: Thermostability, ProteoStat Thermal Shift Stability Kit, temperature of aggregation
Type: physicochemical
Settings: pH 5.0; NS = protein not soluble
measure: Tagg pH 5.0

| molecule | experimental result |
| --- | --- |
| SEQID-00100: nutritive polypeptide (protein, listed as Lactobacillus acidophilus) MSEEEIFNKIKDLIADNFEVDKDSITENTNFMNDLDADSIDLVEFILQLEDEFGAEIPDDEAEKIKTVGDAVSYIKSHQG | 95 |
